# EXPERIMENT DESCRIPTION: Binding affinity to iron assessed as pFe3+
MEASURE NAME: Activity

COMPOUND: CN(C)C(=O)c1cccc(O)c1O
ENDPOINT VALUE: 15
//
COMPOUND: Cc1c(O)c(=O)ccn1CC(=O)NCC(O)CNc1c2c(nc3ccccc13)CCCC2 (configuration not stated)
ENDPOINT VALUE: 21.7
//
COMPOUND: O=c1cc(CO)[nH]cc1O
ENDPOINT VALUE: 22
//
COMPOUND: CC(=O)N(C)O
ENDPOINT VALUE: 13
//
COMPOUND: O=C(NCCN(CCNC(=O)c1[nH]ccc(=O)c1O)CCNC(=O)c1[nH]ccc(=O)c1O)c1[nH]ccc(=O)c1O
ENDPOINT VALUE: 30.5
//
COMPOUND: CC(=O)N(O)CCCCCNC(=O)CCC(=O)N(O)CCCCCNC(=O)CCC(=O)N(O)CCCCCN
ENDPOINT VALUE: 26.6
//
COMPOUND: Cc1c(O)c(=O)ccn1C
ENDPOINT VALUE: 20.4
